target: Metabotropic glutamate receptor 8 (Rattus norvegicus); assay: mGluR8 Gi/Go-coupled signaling modulation – cell-based, rat, thallium flux, HTS, primary screen (AID 488969); settings: HEK293 rat mGluR8, GIRK (G protein-gated inwardly rectifying potassium channel) thallium flux, FluoZin2; at 10 µM; stronger effect = higher value; submaximal glutamate (EC20) added with thallium
Whole data set: some 110,000 compounds, median “z-score” near -0.1, cut for the highest 2% near 2. The entries come from a sample that favours the highest values as a whole. The source made the active and inactive calls.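 How the source made its calls: active means z-score in the third read window above 3 or below -3; inactive means the rest.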
observable: z-score

1. CCOC(=O)C1C(=O)CC(C)(O)C(C(=O)OCC)C1c1ccc(N(CC)CC)cc1 (stereo not drawn) = -0.205
2. COc1ccc(Nc2nc(C)cc(C)c2C#N)cc1 = 0.405
3. CCC/C(O)=C1\C(=O)CCCC1=NCCCCCC(=O)O = 0.156
4. O=C(NCc1ccccn1)c1ccc(CNS(=O)(=O)c2ccc(F)cc2)cc1 = -0.111
5. CCc1nnc(NC(=O)CSc2nnc(-c3ccncc3)n2C)s1 = -1.78
6. Cn1c2ccccc2c2cc(C(=O)NNS(=O)(=O)c3ccc(F)cc3)sc21 = 5.09 (active)
7. CC1=C(C(=O)N2CCCCC2)C(c2cccs2)C2=C(CCCC2=O)N1 (stereo not drawn) = 0.187
8. CCc1nc(C)ccc1OC(=O)C12CC3CC(CC(C3)C1)C2 = 0.238
9. CCCCC(c1nnnn1C1CCCC1)N1CCN(C2CCCCC2)CC1 (stereo not drawn) = -0.391
10. CCc1ccc(NC(=O)CSc2nc3ccccc3c(=O)n2CCCC(=O)N2CCCC2)cc1 = -0.305
11. CCN1CCN(C(=O)CN2C(=O)c3cccc4cccc2c34)CC1 = -0.191
12. CCN(CC)c1ccc(/C=N/NC(=S)NCc2ccco2)cc1 = 0.137
13. Oc1c(N=Nc2ccccn2)ccc2ccccc12 = 13.6 (active)
14. COc1ccc(N=C/C=C2\C=C(c3ccccc3)OC(C)(C)O2)cc1 = -0.461
15. COc1cccc(/C=N/NC(=O)C(=O)N2CCCC2)c1OC = -0.494
16. O=[N+]([O-])c1ccc(COc2cccc(CNc3ccc(Br)cc3)c2)cc1 = 0.133
17. S=C(NCCc1ccccc1)N/N=C/c1ccccc1Cl = 0.283
18. CS(=O)(=O)N(CCc1ccccc1)CC(=O)NCc1cccnc1 = 0.68
19. Cn1c(NC(=O)Cc2ccc(F)cc2)cc(=O)n(C)c1=O = 2.79
20. CCCCCCc1cc2cc(C(=O)NC)c(=N)oc2cc1O = 11.6 (active)
21. C(=N\N1CCN(Cc2ccccc2)CC1)/c1cccs1 = -0.298
22. O=C(Cc1ccc(Cl)cc1)NC(=S)Nc1ccccc1N1CCOCC1 = 0.883
23. CC(Sc1ncnc2ccccc12)C(=O)Nc1ccc2c(c1)OCCO2 (stereo not drawn) = -0.25
24. S=C(NCc1ccco1)Nc1cccc(Cl)c1 = 0.899
25. CSc1nnc(CNC(=O)C23CC4CC(CC(C4)C2)C3)n1Cc1ccccc1 = -0.331
26. O=C(O)CCCCCN1C(=O)/C(=C/c2ccncc2)SC1=S = -0.0629
27. Oc1c(/C=N/c2ncn[nH]2)ccc2ccccc12 = 0.0888
28. COCCn1c(SCC(=O)NCc2ccco2)nc2cccnc21 = 0.0661
29. S=C(NCCc1ccccc1)N/N=C/c1cccc(Cl)c1Cl = 2.63
30. CC1CCN(c2ccccc2NC(=O)c2ccc(F)cc2)CC1 = -0.52
31. O=C(COC(=O)c1ccccc1C(=O)c1ccccc1)NCCc1ccc(Cl)cc1Cl = -0.0656
32. CCCc1cc(=O)[nH]c(SCC(=O)N(Cc2ccccc2)C(C)C)n1 = -0.715
33. CCOc1ccccc1NC(=O)Nc1cccc(C(C)=O)c1 = 3.62 (active)
34. Oc1ccc2ccccc2c1N=Nc1ccccn1 = 2.19
35. COc1cc(/C=N\NC(=O)c2ccc(=O)[nH]n2)cc(OC)c1OC = 0.00269
36. CC1CN(C(=O)/C=C/c2cccc([N+](=O)[O-])c2)CC(C)O1 (stereo not drawn) = -0.164
37. O=C(O)Cc1c(O)ccc2ccccc12 = -0.0548
38. CCOC(=O)C1=C(O)/C(=C\c2cccc(OC)c2)N=C1C = -0.194
39. Cn1c(NC(=O)CCc2ccccc2)cc(=O)n(C)c1=O = -0.492
40. CCCCCCc1cc2cc(C(=O)NCc3ccccc3)c(=N)oc2cc1O = 0.891
41. Oc1ccc(N=Nc2c(O)ccc3ccccc23)cc1 = -0.0552
42. COc1ccc(NC(=O)c2cccc(F)c2)cc1Cl = -0.393
43. COc1cc(/C=N/NC(=S)NCc2ccco2)cc(OC)c1OC = -0.66
44. Cc1c(C)n(C)c2ccc(C(=O)Nc3cccc4ccccc34)cc12 = 0.368
45. S=C(NCc1ccco1)Nc1ccc(Cl)c(Cl)c1 = 8.32 (active)
46. COc1ccc(S(=O)(=O)NNC(=O)c2cc3c4ccccc4n(C)c3s2)cc1 = -0.127
47. CCCCCCc1cc2cc(C(N)=O)c(=N)oc2cc1O = -1.44
48. CN(C)c1ccc(/C=N/NC(=S)NCc2ccco2)cc1 = 0.0065
